Origin of measurements: ChEMBL document CHEMBL3861947

target: Prolyl hydroxylase EGLN3 (Homo sapiens); test: Inhibition of recombinant human HIF-PHD3 expressed in insect Sf9 cells using biotinyl-DLDLEMLAPYIPMDDDFQL as substrate after 60 mins by DELFIA
Sequence (Q9H6Z9 whole entry): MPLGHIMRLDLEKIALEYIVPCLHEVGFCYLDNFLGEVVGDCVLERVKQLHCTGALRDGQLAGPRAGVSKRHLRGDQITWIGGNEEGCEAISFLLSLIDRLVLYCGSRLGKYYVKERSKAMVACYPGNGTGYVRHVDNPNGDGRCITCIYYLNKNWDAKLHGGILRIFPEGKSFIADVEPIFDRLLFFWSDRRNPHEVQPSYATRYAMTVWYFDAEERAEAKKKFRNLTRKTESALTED
pIC50: −log10 of the molar value.
experimentalEndpoint: pIC50

molecule="Oc1c(-n2ccnn2)cnn1-c1cc(N2CCOCC2)ncn1 [MOLIDUSTAT SODIUM]" assaysystem="Prolyl hydroxylase EGLN3 (Homo sapiens)" recordednumber=6.35

----------
molecular target: UniProt Q9GZT9
Sequence (Q9GZT9 whole entry): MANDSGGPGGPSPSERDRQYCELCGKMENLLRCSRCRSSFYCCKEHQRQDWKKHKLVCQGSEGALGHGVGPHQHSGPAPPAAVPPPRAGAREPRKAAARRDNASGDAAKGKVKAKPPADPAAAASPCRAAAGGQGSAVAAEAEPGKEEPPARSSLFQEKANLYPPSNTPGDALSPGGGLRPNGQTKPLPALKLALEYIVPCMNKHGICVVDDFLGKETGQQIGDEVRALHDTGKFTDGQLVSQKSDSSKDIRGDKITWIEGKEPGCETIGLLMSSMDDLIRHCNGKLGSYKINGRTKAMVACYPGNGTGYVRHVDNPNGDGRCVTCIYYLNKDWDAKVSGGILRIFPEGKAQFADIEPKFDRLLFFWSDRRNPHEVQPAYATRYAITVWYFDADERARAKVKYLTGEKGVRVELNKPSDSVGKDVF
experimentalEndpoint: IC50 (nM)

molecule="Oc1c(-n2ccnn2)cnn1-c1cc(N2CCOCC2)ncn1 [MOLIDUSTAT SODIUM]" assaysystem="UniProt Q9GZT9" recordednumber=280
